test system: CA09; assay: microbe, parasite or virus in culture; type: cell-based, influenza virus H1N1 strain A/CA/04/2009; conditions: NHBE, read-out: TCID50 (per mL)
Measure: log reduction at 10 pM
Give the figure by itself; no unit, no explanation.

Molecule: Clc1ccccc1C(c1ccccc1)(c1ccccc1)n1ccnc1 [Clotrimazole]
log reduction at 10 pM: 0.71
//
Molecule: Nc1cc(C(F)(F)F)c(-c2cc(N3CCOCC3)nc(N3CCOCC3)n2)cn1 [NVP-BKM120]
log reduction at 10 pM: 0
//
Molecule: O=CC[C@@H](O)[C@H](O)[C@H](O)CO [2-deoxyglucose]
log reduction at 10 pM: 0.94

Ask: State, for CA09, measured log reduction at 10 pM of the molecule listed here: COc1ccc(Cc2nnc(NS(=O)(=O)c3ccccc3)s2)cc1 [OU749]
Reply: 0

Ask: For CA09, give log reduction at 10 pM of the listed molecule: NC(=O)N1CCC(CC(=O)N2CCC([C@H]3c4ncc(Br)cc4CCc4cc(Cl)cc(Br)c43)CC2)CC1 [Lonafarnib]
Reply: 0.04
